System: PPARg:RXRa 30nM:10nM, anti-RXR (NR concentration 30 nM, RXRa partner concentration 10 nM)
Assay Summary: PBM binding z-score (relative to random genomic background probes); higher = stronger binding; sequences stand for … in GC…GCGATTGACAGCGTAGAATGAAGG
Attribute Measured: PBM binding z-score
A bare number is all that is needed in reply.

Residue Codes: CGTCCAAGGTCAGCAGGTCTGTGAAAGCGACGTG
PBM binding z-score: 0.0215
--
Residue Codes: ATACCAAGGTGATCGTGCGGTCGTTGATACTAAC
PBM binding z-score: -0.564
--
Residue Codes: CCGCGGAGGACAACAGGAGGTCAGAGCTGCCAGA
PBM binding z-score: -0.523
--
Residue Codes: TGAATGAGGTTATAAGATCAGAGAACGTTGCAAA
PBM binding z-score: 1.04
--
Residue Codes: CGAACTAGGTCAAAACAGGACAGTGAAGGATGAT
PBM binding z-score: 3.32

PBM binding z-score of `AGAACGAGGGCAATGAGTTGCTAGCACGGGTGGC` on PPARg:RXRa 30nM:10nM, anti-RXR (NR concentration 30 nM, RXRa partner concentration 10 nM)?
-0.288

Can you check `ATATGTAGGTTAGCTGGGGACATTCAGACTAGGC` next?
1.12

Can you check `CATACAGGGTCAGCCAGGCCAGAGTAGGGACGGC` next?
0.666

Can you check `CGTCCAAGGTCAAGGTCAGTAAAAGAGACTCGAA` next?
2.62

Can you check `AGTCAAAGTTCAGGACGAGGTATCGTAAAGCACG` next?
1.74

Can you check `CCTGCTAAGTCATGGTCAGCTAATCTACAGTATG` next?
-0.358

Can you check `CAAACTAGGTCAAGGTGAAAGTCGGTTTGTGCCA` next?
6.13

* * *

Test system: LXRa:RXRa (NR concentration 270 nM, RXRa partner concentration 90 nM)
Assay Summary: PBM binding z-score (relative to random genomic background probes); higher = stronger binding; sequences stand for … in GC…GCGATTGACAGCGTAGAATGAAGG
The reader will find reported PBM binding z-score values listed item by item below.
A bare number is all that is needed in reply.

Reference set (5 entries):
Residue Codes: TCTAGTTGGTCAAAGGTGACACACTCGAAATGCG
Value Observed: 1.67
//
Residue Codes: CCGAGTAGGTTATGGGGAATTCAGGCAACGGTGA
Value Observed: 0.544
//
Residue Codes: ATCTCTAGATAAAGTTCAGTGAAAGATCGATAGA
Value Observed: 1.1
//
Residue Codes: CAAACTACGTCAAGAGGTCAAAGTCCGCTTCCCG
Value Observed: 5.77
//
Residue Codes: ACTCGGAGGACAAAGGTCGGAGCTACGCCAGTGA
Value Observed: 1.18

Using the record for `CATACAGGGTCAGCTAGGCCAGAGTGGGGACGGC` , report its PBM binding z-score.
2.94

Can you check `CCAGACAGGTGAAAGGTAATTCAGTCTGGTACGC` next?
0.764

Can you check `AATACAGGGGCACTAGGCCAGAGTAGGTACGAAT` next?
0.117

Can you check `CCAGCCAGGTGAGAAGGTAACTCAGCCTCGATTA` next?
-0.406

Can you check `ATCTCTAGGAAAGACTCAGTTCAGTGAAGAACGC` next?
0.324

Can you check `ATCGAAAGGTCGATGAGGTGAGTATACACCGTTT` next?
2.76

Can you check `TCATATAGGTAATACAGGTGAAAGTCGGCATCTA` next?
1.54

* * *

Test system: RARg:RXRa (NR concentration 270 nM, RXRa partner concentration 90 nM)
Assay Summary: PBM binding z-score (relative to random genomic background probes); higher = stronger binding; sequences stand for … in GC…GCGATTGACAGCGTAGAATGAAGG
Assign class by PBM binding z-score: not lower than 1 means t; lower than 1 means f.

Residue Codes: CCTACTGGGCCATCAGGTCAGTGATATCAACGTT
Test System: RARg:RXRa (NR concentration 270 nM, RXRa partner concentration 90 nM)
Assigned Label: t
//
Residue Codes: CGTCCAAGGTCATAGGATGTCAGTGAAGACAGAT
Test System: RARg:RXRa (NR concentration 270 nM, RXRa partner concentration 90 nM)
Assigned Label: t
//
Residue Codes: TAATATAGGTAAATGCTAGGTGAAAGTCCGATCT
Test System: RARg:RXRa (NR concentration 270 nM, RXRa partner concentration 90 nM)
Assigned Label: f
//
Residue Codes: CCAAACAGGTGAGAAGGTAACTCAGCCTCGATTA
Test System: RARg:RXRa (NR concentration 270 nM, RXRa partner concentration 90 nM)
Assigned Label: f
//
Residue Codes: TCTGCCAGGTCAACGATGGTCAGCTAATCTGCTA
Test System: RARg:RXRa (NR concentration 270 nM, RXRa partner concentration 90 nM)
Assigned Label: t

Does the sequence `CAAACTGGGTCACCGGAAGGTCAAAGTCCGCATG` have recorded PBM binding z-score that is 1 or more?
t

* * *

Test system: PPARg:RXRa 90nM:30nM, anti-RXR (NR concentration 90 nM, RXRa partner concentration 30 nM)
Assay Summary: PBM binding z-score (relative to random genomic background probes); higher = stronger binding; sequences stand for … in GC…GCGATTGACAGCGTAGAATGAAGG
Categorize each record by its PBM binding z-score using bottom range: < 1; center range: ≥ 1 and < 3; top range: ≥ 3

Consider the worked cases shown below.
Residue Codes: ATCGAGAGGTCGACGAGGTGAGTATACACCGTTT
Assigned Label: center range
--
Residue Codes: CCAGACAGGTGAGAAGGAAACTCAGCCTCGATTA
Assigned Label: bottom range

API: the following record is the query input.
Field: class (PBM binding z-score) — entry: `AGTCAAAGTTCATCTAGGTAACGTCAGATATGCT`
top range

* * *

System: PPARg homodimer (NR concentration 180 nM)
Assay Summary: PBM binding z-score (relative to random genomic background probes); higher = stronger binding; sequences stand for … in GC…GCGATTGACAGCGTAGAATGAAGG
Attribute Measured: PBM binding z-score
A bare number is all that is needed in reply.

Reference set (5 entries):
Residue Codes: TCGACTAGGTTAGTCGGGGCATTCAGCCAACATA
PBM binding z-score: -0.609

Residue Codes: AGAACGAGGGCACGCTGAATTGATAGCAGAGTAG
PBM binding z-score: -0.00941

Residue Codes: TCATATAGGAAAAGGTGAAAGTCGAACGATATGA
PBM binding z-score: 0.985

Residue Codes: GCGACTGGGGCATCAGCAGGTCACCATAACTTAA
PBM binding z-score: 2.67

Residue Codes: ATCTCTAGGTAACCAAGTTCACTGAATGCCGAAC
PBM binding z-score: 1.17

Using the record for `ACCTCTAGGTAACAAGTTCAGTGAAAGAGAGGAC` , report its PBM binding z-score.
0.609

Can you check `TCTCGGAGGACACGAAAGTCAGAGCTTTCCAGAG` next?
-0.882

Can you check `ACTAGTTGGTTAGCTGAGGTCACACACAATTCGG` next?
3.15

Can you check `GGAACGAGGGCAAGTTGGTAGCAGAGTTTGATGG` next?
0.722

Can you check `TCTAGCAGGCCAGAGGGTCACTCATGAGGTACGG` next?
0.486

Can you check `AGAATGAGGTTATACGTAGATCCGGGAAGAAAGT` next?
0.53

Can you check `TTACCAAGGTGAGCGGAGGTCGTTGATCCAACTC` next?
-0.196

Can you check `CCTTACGGCTCACTCCAGGTTATAGCATCGGAGT` next?
0.301

Can you check `CCAGACAGGGGAGAAGGTAACTCAGCCTCGATTA` next?
0.413

Can you check `ACAGACAGGTGATGAAGGTAACACAGGCTATCAT` next?
0.26

Can you check `ATCGAATGGTCGACGAGGTGAGTATACACCGTTT` next?
-0.342

Can you check `GGAACGACGGCAAAGTTGATAGCATCTGTCGACG` next?
-0.573

* * *

System: FXR:RXRa (NR concentration 270 nM, RXRa partner concentration 90 nM)
Assay Summary: PBM binding z-score (relative to random genomic background probes); higher = stronger binding; sequences stand for … in GC…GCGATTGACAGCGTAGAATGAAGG
The reader will find reported PBM binding z-score values listed item by item below.
A bare number is all that is needed in reply.

Residue Codes: GCTAGTTGGTCAGGAAAAGGTCACACACCGGTCG
PBM binding z-score: 3.35
//
Residue Codes: TCTTGTAGATCAAGTAGGTTAAGAAAGCCTGAGT
PBM binding z-score: 0.567
//
Residue Codes: AGTCAAAGTTTACTAGGTAACGTAAGATTCAGCT
PBM binding z-score: -0.0676

Using the record for `AATACAGGGTCATCGTAGGCCAGAATACGCACAG` , report its PBM binding z-score.
7.14

Can you check `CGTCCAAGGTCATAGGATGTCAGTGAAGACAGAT` next?
7.4

Can you check `GCTAGTTGGTCAGTAAAAGGTCAAACACCGGTCG` next?
3.88

Can you check `ATCACTAGGTAAAGTTCAGTGAAAGATCGATAGA` next?
0.984

Can you check `GCATATAGGTAATAAAAGGTGAAAGTCCGATTGT` next?
1.12

Can you check `CCTGATAGGTCAATGGTCAGCTAAAGCAGCTCGC` next?
5.01

Can you check `AGAATGAGGTTAAGATCTGGGAAACAGAATACAT` next?
1.95

Can you check `CTACCAAGGTGAACAAGGTAGTTGATTACTATTC` next?
0.29

Can you check `CCAGACAGGTGAGAAGGTACCTCAGCCTCGATTA` next?
-0.184

FYI, the data here is from the supplement of paper PMC6555819.
